assay: qHTS assay to identify small molecule agonists of the retinoic acid receptor (RAR) signaling pathway (AID 1159553); conditions: C3RL4 RARE luciferase reporter, agonist, 6 h; series mostly up to 73.3 µM; as to activation: % is scaled to controls: 0 for no effect and ±100 for the full control effect
Results filed as inconclusive are left out. Active and inactive are the calls of the source. Calls follow the shape of the dose curve; as a rule, active = well fitted activation curve with a large enough effect in the repeat runs; inconclusive = weak or mixed curves, or effect the other way; inactive = no such curve, though single readings can be large or run the other way.
A correct response names exactly one class from active, inactive

Study these solved cases before continuing.
O=C(c1ccccc1)c1cc(Cl)ccc1O :: inactive
Cc1cc2c(C(C)C)c(O)c(O)c(C=O)c2c(O)c1-c1c(C)cc2c(C(C)C)c(O)c(O)c(C=O)c2c1O :: inactive
Cc1ccc2ccc3cccc4ccc1c2c34 :: inactive
CCCCCCCOC(=O)c1ccc(O)cc1 :: active
SCCCCCCCCS :: inactive
CCCC(CC)CCCCCCCN (stereo not drawn) :: inactive
ClC/C=C\CCl :: inactive
COc1cc(C(=O)NS(=O)(=O)c2ccccc2C)ccc1Cc1cn(C)c2ccc(NC(=O)OC3CCCC3)cc12 :: inactive

Called result for CCCCCCC(C)Nc1ccc(Nc2ccccc2)cc1 (stereo not drawn) inactive

# outcome recorded in this test, key = CC(C)(C)C1=CC(=O)C=C(C(C)(C)C)C1=O inactive

Assay outcome for C=C1C(C)(C)[C@@]2(Cl)C(Cl)[C@]1(Cl)C(Cl)(Cl)C2(Cl)Cl (stereo partly drawn) : what was it? inactive

Test call, this compound: c1cc2c3c(c1)ccc1cccc(c13)C2 inactive

Assay outcome for CCOC(=O)N1CCC(=C2c3ccc(Cl)cc3CCc3cccnc32)CC1 : what was it? inactive

Could you please tell me the result logged for CCCCCCCC/C=C\CCCCCCCC(=O)OCCOC(=O)CCCCCCC/C=C\CCCCCCCC in this assay? inactive

---

assay: qHTS RealTime-Glo MT Cell Viability Assay in HEK293 cells - 24 hour (AID 1224886); conditions: RealTime-Glo luminescence; series mostly up to 76.8 µM; also: top concentration of the series differs between compounds; % is scaled to controls: 0 for no effect and ±100 for the full control effect; nearly all actives have a fitted effect of over 50% in size
Records with an inconclusive call do not appear. Activity calls are given as the source filed them. The call rests on the fitted dose curve; in most records, active means well fitted cell-killing curve with a large enough effect in the repeat runs; inconclusive means weak or mixed curves, or effect the other way; inactive means flat fitted curve, though single readings scatter.
Each entry below carries its recorded activity change, negative = cytotoxicity.

O=C=NCc1cccc(CN=C=O)c1 :: 4.88% [at 15.8 µM] (inactive)
CCCCCCCCCCCCCCCCCO :: 0.271% [at 15.8 µM] (inactive)
CCC(=O)CC(C)CC (stereo unspecified) :: -3.03% [at 0.29 µM] (inactive)

Name the recorded activity change, negative = cytotoxicity for C=C/C=C/C=C/CCCCC . 13% [at 15.8 µM] (inactive)

Which measured activity change, negative = cytotoxicity value corresponds to O=S(=O)(O)c1cc(S(=O)(=O)O)c2ccc3c(S(=O)(=O)O)cc(S(=O)(=O)O)c4ccc1c2c43 ? 1.56% [at 15.8 µM] (inactive)

Returns the measured activity change, negative = cytotoxicity for the input compound. Input: O=S(O)O 11.2% [at 15.8 µM] (inactive)

---

test: qHTS assay for small molecules that induce genotoxicity in human embryonic kidney cells expressing luciferase-tagged ATAD5 - cell viability (AID 651634); conditions: HEK293T ATAD5-luc cells viability, CellTiter-Fluor, 15.5 h; series mostly up to 83.3 µM; also: nearly all actives have a fitted effect of over 25% in size
Results filed as inconclusive are left out. Activity calls are given as the source filed them. The call rests on the fitted dose curve.
Parameter call: string, one of y = active, n = inactive

COc1cc(C=C2CCC/C(=C\c3ccc(O)c(OC)c3)C2=O)ccc1O :: y
CC(C)OC(=O)c1cc(C(=O)OC(C)C)cc([N+](=O)[O-])c1 :: n
O=Nc1ccc(NO)cc1 :: n
Nc1ncnc2c1ncn2[C@@H]1O[C@H](COP(=O)(O)O)[C@@H](O)[C@H]1O :: n
CC1CCCNC1 (stereo unspecified) :: n

Now consider a different molecule.
Hi, sorry to bother you, what did the test record for COCC(=O)O[C@]1(CCN(C)CCCc2nc3ccccc3[nH]2)CCc2cc(F)ccc2[C@@H]1C(C)C ? y

---

assay: qHTS assay to identify small molecule agonists of the TGF-beta/Smad signaling pathway (AID 1346859); settings: SBE-bla HEK293T, TGF-beta/Smad beta-lactamase reporter, 5 h; series mostly up to 76.8 µM; also: % is scaled to controls: 0 for no effect and ±100 for the full control effect
Results filed as inconclusive are left out. Activity calls are given as the source filed them. The call rests on the fitted dose curve; in most records, active means well fitted activation curve with a large enough effect in the signal ratio in the repeat runs (not every such curve was filed as active); inconclusive means weak or mixed curves; inactive means flat fitted curve, though single readings scatter; the % refers to the signal ratio.
TEST_READOUT: activation

Here's what some known entries look like.
Brc1ccccc1-c1ccccc1 :: inactive
CC(C)(c1cc(Br)c(O)c(Br)c1)c1cc(Br)c(O)c(Br)c1 :: inactive
N#CSCSc1nc2ccccc2s1 :: inactive
CCC(=O)CC(C)CC (stereo not given) :: -0.839% [at 0.29 µM] (inactive)
Cc1cc(C)c(C=O)c(C)c1 :: inactive
Brc1ccccn1 :: inactive

Quick one: activation of CC(NCCC(c1ccccc1)c1ccccc1)c1ccccc1 (stereo not given) ? inactive

GET /values?readout=activation&item= CCOC(OCC)C(=O)c1ccccc1 inactive

# query: activation of entry CC1CCCCN1CCCOC(=O)c1ccc(OC2CCCCC2)cc1 (stereo not given) inactive

Entry under review: S=C(SSSSSSC(=S)N1CCCCC1)N1CCCCC1 . Reported activation? 10.4% [at 15.8 µM] (inactive)

---

experiment: A CellTox Green Cytotoxicity Assay to monitor cytotoxicity in HEK293 cells - 0 hour (AID 1224869); conditions: CellTox Green fluorescence; series mostly up to 76.8 µM; also: % is scaled to controls: 0 for no effect and ±100 for the full control effect; nearly all actives have a fitted effect of over 50% in size
The source made the active and inactive calls. Calls follow the shape of the dose curve; as a rule, active = well fitted activation curve with a large enough effect in the repeat runs; inconclusive = weak or mixed curves; inactive = flat fitted curve, though single readings scatter.
TEST_READOUT: cytotoxicity

O=C1Nc2ccc(Cl)cc2[C@@](C#CC2CC2)(C(F)(F)F)O1 :: inactive
c1ccc(Nc2cccc3ccccc23)cc1 :: inactive
CCCC(=O)OCC(COC(=O)CCC)OC(=O)CCC :: inactive
O=S(=O)(O)CCCN1CCOCC1 :: inactive
CC(C)=CC1CC(C)CCO1 (stereo not given) :: inactive

Entry C=CC(=C)CCC=C(C)C : reported cytotoxicity = ? inactive

---

assay: qHTS assay to identify small molecule antagonists of the estrogen receptor alpha (ER-alpha) signaling pathway - cell viability counter screen (AID 743074); conditions: ERalpha-bla HEK293 viability, CellTiter-Glo luminescence, 18 h; series mostly up to 69.4 µM;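 also: HEK293 cells carrying ER-alpha-UAS-bla reporter stimulated with 17beta-estradiol; nearly all actives have a fitted effect of over 45% in size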
Results filed as inconclusive are left out. Active and inactive are the calls of the source. Calls follow the shape of the full dose curve.
I would appreciate it if you answered using one of these outcomes: active, inactive

Here are 5 compounds together with their reported answers.
O=C(O)c1cccc(Cl)n1 :: inactive
CC(O)C#CC(C)O (configuration not stated) :: inactive
Clc1ccc(C(Cn2ccnc2)OCc2c(Cl)cccc2Cl)c(Cl)c1 (configuration not stated) :: inactive
O=C(Nc1ccc(Cl)cc1)Nc1ccc(Cl)c(C(F)(F)F)c1 :: active
CNC(=O)c1cc(Oc2ccc(NC(=O)Nc3ccc(Cl)c(C(F)(F)F)c3)cc2)ccn1 :: active

Identify the outcome logged in this assay for the compound shown: Cc1cn[nH]c1 inactive

Could you check what this test reported for C=CC(C)(CCC=C(C)C)OC(=O)/C=C/c1ccccc1 (configuration not stated) ? inactive

---

target: Cytochrome P450 3A4 (Homo sapiens); experiment: Cytochrome P450 Family 3 Subfamily A Member 4 (CYP3A4) small molecule antagonists: luciferase reporter qHTS assay (AID 1671201); settings: P450-Glo CYP3A4 enzyme, luciferin luminescence, 1 h; series mostly up to 115 µM; also: nearly all actives have a fitted effect of over 50% in size
Inconclusive results are not listed. Calls of active or inactive are those of the source. Calls come from the whole dose curve; as a rule, active = well fitted inhibition curve with a large enough effect in the repeat runs; inconclusive = weak or mixed curves; inactive = no such curve, though single readings can be large or run the other way.
The reply should name one outcome from active, inactive

The following compounds have reported results that may help.
CC(C)=CCCC(C)O (stereo not given) :: inactive
CCc1c(Br)c(Br)c(Br)c(Br)c1Br :: inactive

Turning now to a further compound:
Please share the test call associated with C=C1C(C)(C)[C@@]2(Cl)C(Cl)[C@]1(Cl)C(Cl)(Cl)C2(Cl)Cl (stereo not given in full) . active

---

Assay: qHTS assay to identify small molecule antagonists of the progesterone receptor (PR) signaling pathway - cell viability counter screen (AID 1346798);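 also: HEK293T PR-UAS-bla cells stimulated with the agonist R5020; % is scaled to controls: 0 for no effect and ±100 for the full control effect; nearly all actives have a fitted effect of over 50% in size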
Settings: PR-UAS-bla HEK293T viability, CellTiter-Glo luminescence, 16 h; series mostly up to 92.4 µM
From the text: National Center for Advancing Translational Sciences [NCATS] NIH Chemical Genomics Center [NCGC] U.S. Environmental Protection Agency [EPA] National Institutes of Environmental Health Sciences [NIEHS] National Toxicology Program [NTP] U.S. Food and Drug Administration [FDA] Progesterone receptor (PR), a nuclear hormone receptor, plays an important role in development, metabolic homeostasis and reproduction. It is activated by the steroid hormone progesterone. […]
Results filed as inconclusive are left out. The source made the active and inactive calls. Calls come from the whole dose curve; as a rule, active = well fitted cell-killing curve with a large enough effect in the repeat runs; inconclusive = weak or mixed curves, or effect the other way; inactive = no such curve, though single readings can be large or run the other way.
Return exactly one item of label 1 (active), label 0 (inactive)

For Oc1cc2ccccc2cc1O , what call appears in the results of this test? label 0

---

target: Estrogen receptor (Homo sapiens) (UniProt P03372); assay: qHTS assay to identify small molecule agonists of the estrogen receptor alpha (ER-alpha) signaling pathway in the presence of an antagonist (AID 1259383); conditions: VM7Luc4E2 cells, ERE-luciferase, +ICI-182,780, 22 h; series mostly up to 92.4 µM; also: top concentration of the series differs between compounds; % is scaled to controls: 0 for no effect and ±100 for the full control effect; nearly all actives have a fitted effect of over 15% in size
Sequence (P03372 whole entry, looked up): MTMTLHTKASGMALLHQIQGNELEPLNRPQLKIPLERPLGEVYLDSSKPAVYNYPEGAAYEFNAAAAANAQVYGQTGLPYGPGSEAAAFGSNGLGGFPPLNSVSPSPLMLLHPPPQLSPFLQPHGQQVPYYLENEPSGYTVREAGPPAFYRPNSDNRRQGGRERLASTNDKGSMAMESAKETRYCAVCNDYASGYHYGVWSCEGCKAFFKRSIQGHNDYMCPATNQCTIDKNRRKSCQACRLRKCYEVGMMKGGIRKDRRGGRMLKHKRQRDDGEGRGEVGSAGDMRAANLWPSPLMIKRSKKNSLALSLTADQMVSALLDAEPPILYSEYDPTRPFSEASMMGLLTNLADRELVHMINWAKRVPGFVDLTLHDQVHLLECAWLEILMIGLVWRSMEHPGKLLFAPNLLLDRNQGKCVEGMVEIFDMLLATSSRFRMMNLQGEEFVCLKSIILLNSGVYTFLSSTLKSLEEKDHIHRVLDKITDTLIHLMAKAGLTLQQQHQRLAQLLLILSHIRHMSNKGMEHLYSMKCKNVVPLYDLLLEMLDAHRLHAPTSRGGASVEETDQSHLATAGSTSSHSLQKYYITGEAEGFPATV
The source made the active and inactive calls. The call rests on the fitted dose curve.
TEST_READOUT: activation

CCCCCCS :: inactive
CCCCCCCCCCCCOC(=O)c1cc(O)c(O)c(O)c1 :: inactive
CC(C)C(=O)OCc1ccccc1 :: inactive
CC(=O)c1ccccc1N :: inactive
CC(C)N=C(N)/N=C(\N)Nc1ccc(Cl)cc1 :: inactive

So what's the measured activation for this one? COC(=O)CC(C)CCC=C(C)C (stereo not given) inactive
